Target Entity: recombinant mouse LPLA2 (PLA2G15) (Mus musculus, UniProt Q8VEB4)
Construct: purchased Proteos Inc. (Kalamazoo, MI)
Sequence (Q8VEB4 34-412): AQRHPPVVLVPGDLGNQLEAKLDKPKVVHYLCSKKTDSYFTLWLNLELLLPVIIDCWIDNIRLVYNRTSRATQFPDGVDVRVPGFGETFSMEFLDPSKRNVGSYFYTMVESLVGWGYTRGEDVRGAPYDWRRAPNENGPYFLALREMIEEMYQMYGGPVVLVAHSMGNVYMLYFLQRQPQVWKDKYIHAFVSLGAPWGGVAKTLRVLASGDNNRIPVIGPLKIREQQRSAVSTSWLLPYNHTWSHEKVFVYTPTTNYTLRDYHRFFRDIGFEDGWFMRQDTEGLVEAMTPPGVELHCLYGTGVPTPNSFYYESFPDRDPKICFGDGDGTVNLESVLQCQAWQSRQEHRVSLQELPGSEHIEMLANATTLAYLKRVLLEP
Experiment: Transacylase activity of LPLA2 (1-O-acyl-N-acetylsphingosine synthase, cell-free liposome assay)
Assay type: biochemical
Assay Setup: 1-O-acyl N-acetylsphingosine synthase activity, pH 4.5, DOPC/sulfatide liposomes; read-out: LPLA2 IC50
Counter-ions that a name gives are not always drawn.
Recorded Endpoint: IC50 (µM)
The figure you give is taken to be in µM; do not add the unit.

Please give the measured IC50 for this compound: CCN(CCCCOC(=O)c1ccc(OC)c(OC)c1)C(C)Cc1ccc(OC)cc1 (stereo not drawn) [Mebeverine]
417

What would you report for CC(=O)[C@H]1CC[C@H]2[C@@H]3CCC4=CC(=O)CC[C@]4(C)[C@H]3CC[C@]12C [Progesterone] ?
10.5

What would you report for CCCCNc1ccc(C(=O)OCCN(C)C)cc1 [Tetracaine] ?
333

What would you report for Clc1ccc(C(c2ccccc2Cl)C(Cl)Cl)cc1 (stereo not drawn) [Mitotane] ?
132

What would you report for C=CCc1ccccc1OCC(O)CNC(C)C (stereo not drawn) [Alprenolol] ?
173

What would you report for OCCOCCN1CCN(C(c2ccccc2)c2ccc(Cl)cc2)CC1 (stereo not drawn) [Hydroxyzine] ?
63

What would you report for OC(CCN1CCCCC1)(c1ccccc1)c1ccccc1 [Pridinol] ?
285

What would you report for Clc1ccccc1CNC[C@H]1CC[C@H](CNCc2ccccc2Cl)CC1 [ay-9944] ?
116

What would you report for CC(=O)N1CCN(c2ccc(OCC3COC(Cn4ccnc4)(c4ccc(Cl)cc4Cl)O3)cc2)CC1 (stereo not drawn) [Ketoconazole] ?
39

What would you report for CN1CCN2c3ncccc3Cc3ccccc3C2C1 (stereo not drawn) [Mirtazapine] ?
8.7

What would you report for `Cc1ccc2c(Cl)cc(Cl)c(O)c2n1` ?
1180

What would you report for CCN(CC)CCc1nc(-c2ccccc2)no1 [Oxolamine citrate] ?
369
